# Tgt: human GLP-1 receptor (human, UniProt P43220 24-463)
# Assay Info: cell-based or functional assay
*1 amine or outer side, *2 acyl side, *3 side chain or, on linkers, in order; H or OH if unused. Where no end group is shown, it is not given here. Side-chain parts run from the residue outwards. [ ]: non-standard residue; d: D form. The star is where a group is joined. Undecanoyl(11-OPh(4-COOH)) = O=C(O)c1ccc(OCCCCCCCCCCC(=O)*)cc1; Decanoyl(10-(4-HOOC-PhO)) = O=C(O)c1ccc(OCCCCCCCCCC(=O)*)cc1; γGlu = O=C(O)[C@H](CCC(=O)[*:2])N[*:1]; AEEA = NCCOCCOCC(=O)O; Aib = CC(C)(N)C(=O)O
Assay Metric: In vitro potency (AlphaScreen cAMP; membranes) EC50 (nM)
Answer with a number only, understood to be in nM.

Q: Could you tell me which In vitro potency (AlphaScreen cAMP; membranes) EC50 is on file for HXEGTFTSDVSSYLEGQAAKEFIAWLVRGRK (Aib at 8; eps-amino of Lys26 and Lys37 each acylated with 12-(4-carboxyphenoxy)dodecanoyl-gGlu-Ser-Ser-Gly-Ser-Ser-Gly) ?
Result: 0.166

Q: HXEGTFTSDVSSYLEGQAAKEFIAHLVQGRK (Aib at 8; eps-amino of Lys26 and Lys37 each acylated with 10-(4-carboxyphenoxy)decanoyl-gGlu-Ser-Ser-Gly-Ser-Ser-Gly) , same question.
Result: 0.116

Q: Same again, this time with HAEGTFTSDVSK([AEEA-AEEA-γGlu-Decanoyl(10-(4-HOOC-PhO))])YLEEQAAK([AEEA-AEEA-γGlu-Decanoyl(10-(4-HOOC-PhO))])EFIAWLVQGRG [Comparative compound of Example 5a: Compound of Example 38, Chem. 57, in WO 2012/062803]
Result: 0.224

Q: Now the same for H[Aib]EGTFTSDVSK([Ala-Ser-Ser-Ala-Ser-Ser-γGlu-Undecanoyl(11-OPh(4-COOH))])YLEGQAAK([Ala-Ser-Ser-Ala-Ser-Ser-γGlu-Undecanoyl(11-OPh(4-COOH))])EFIAWLVQGRG
Result: 0.183

Q: Would you mind doing HXEGTFTSDVSSYLEGQAAKEFIAHLVQGRGK (Aib at 8; eps-amino of Lys26 and of the added C-terminal Lys (position 38) each acylated with 10-(4-carboxyphenoxy)decanoyl-gGlu-Ser-Ser-Gly-Ser-Ser-Gly) as well?
Result: 0.381
